Tgt: T1, FZD3 cysteine-rich domain (CRD), MYC-tagged and GPI-anchored on CHO cells (human, UniProt Q9NPG1 24-150, GPI anchor)
T1 construct: domain: cysteine-rich domain (CRD); also called FZD3 CRD; CHO-myc-FZDGPI; not shown: MYC tag and GPI anchor signal
T1 sequence (looked up): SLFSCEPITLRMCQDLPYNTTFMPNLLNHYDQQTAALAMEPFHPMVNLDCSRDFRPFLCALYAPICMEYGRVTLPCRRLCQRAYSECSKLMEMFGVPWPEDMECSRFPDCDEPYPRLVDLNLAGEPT
Protocol summary: immunofluorescence, CHO-CRD cells

Binder	binding result
Fab-2910 (Fab, V domains shown, Fab) VH: EVQLVESGGGLVQPGGSLRLSCAASGFNISYSYMHWVRQAPGKGLEWVASIYSSSSSTSYADSVKGRFTISADTSKNTAYLQMNSLRAEDTAVYYCARGAMDYWGQGTLVTVSS VL: DIQMTQSPSSLSASVGDRVTITCRASQSVSSAVAWYQQKPGKAPKLLIYSASSLYSGVPSRFSGSRSGTDFTLTISSLQPEDFATYYCQQWYGSHLITFGQGTKVEIK	no binding
Fab-2924 (Fab, V domains shown, Fab; also called Fv-2924) VH: EVQLVESGGGLVQPGGSLRLSCAASGFNISYSYIHWVRQAPGKGLEWVASIYSYYSSTSYADSVKGRFTISADTSKNTAYLQMNSLRAEDTAVYYCARGALDYWGQGTLVTVSS VL: DIQMTQSPSSLSASVGDRVTITCRASQSVSSAVAWYQQKPGKAPKLLIYSASSLYSGVPSRFSGSRSGTDFTLTISSLQPEDFATYYCQQWYSGHSLITFGQGTKVEIK	no binding

Hello, the source for this data is patent US20210253718A1, in case you need it.
